meta.source: PubChem BioAssay (NCI)

System: SW-620 colon
Test: NCI tumour cell line growth inhibition, 48 h
Readout: TGI

Asked: Please report the recorded TGI for O=C(/C=C/c1ccc(O)c(O)c1)OCCOC(=O)/C=C/c1ccc(O)c(O)c1 .
Given back: > 100 µM

Asked: Please report the recorded TGI for Oc1ccc2ccccc2c1N=Nc1ccccc1 .
Given back: > 100 µM

Asked: Please report the recorded TGI for CN(Cc1cnc2nc(N)nc(N)c2n1)c1ccc(C(=O)NC(CCC(=O)O)C(=O)O)cc1 (stereo not given) .
Given back: > 100 µM

Asked: Please report the recorded TGI for CC[C@H](C)[C@H](NC(=O)C12C3C4C1C1C2C3C41NC(C)=O)C(=O)N(C)[C@H](C[C@@H](OC(C)=O)c1nc(C(=O)N[C@@H](Cc2ccccc2)C[C@H](C)C(=O)OC)cs1)C(C)C (stereo not given in full) .
Given back: > 14.3 µM

Asked: Please report the recorded TGI for N#Cc1nc(-c2ccccc2)oc1S(=O)(=O)N1CCOCC1 .
Given back: 4.84 µM

---

Would you kindly list TGI for each of these compounds?
Tested on: SK-OV-3 ovarian
Experiment: NCI tumour cell line growth inhibition, 48 h

Asked: Please report the recorded TGI for CC[C@H](C)[C@H](NC(=O)C12C3C4C1C1C2C3C41NC(C)=O)C(=O)N(C)[C@H](C[C@@H](OC(C)=O)c1nc(C(=O)N[C@@H](Cc2ccccc2)C[C@H](C)C(=O)OC)cs1)C(C)C (stereo partly specified) .
Given back: > 14.3 µM

Asked: Please report the recorded TGI for CCc1cccc(C)c1NC(=O)NS(=O)(=O)c1ccc(C)cc1 .
Given back: > 100 µM

Asked: Please report the recorded TGI for Cc1nc2c(-c3ccccc3)[nH]c(C)c2c(=O)o1 .
Given back: > 100 µM

Asked: Please report the recorded TGI for C[Si](C)(C)/C=C/CN1C(=O)CCC1O (stereo unspecified) .
Given back: > 100 µM

Asked: Please report the recorded TGI for CC1OC(=O)c2ccccc2NC1=O (stereo unspecified) .
Given back: > 100 µM

Asked: Please report the recorded TGI for COc1ccc(/C=C\c2cc(OC)c(OC)c(OC)c2)c(NS(=O)(=O)c2ccc(C)cc2)c1O .
Given back: > 100 µM

---

Would you kindly list TGI for each of these molecules?
Tested on: COLO 205 colon
Test: NCI tumour cell line growth inhibition, 48 h

Asked: Please report the recorded TGI for CC/C(Cl)=N\OC(=O)Nc1ccc(C#N)cc1 .
Given back: 3.3 µM

Asked: Please report the recorded TGI for CC#CC(=O)N1CCC[C@H]1c1nc(-c2ccc(C(=O)Nc3ccccn3)cc2)c2c(N)nccn12 .
Given back: > 100 µM

Asked: Please report the recorded TGI for O=C(NC(Nc1ccc(F)c(Cl)c1)(C(F)(F)F)C(F)(F)F)C(C(F)(F)F)C(F)(F)F .
Given back: 74.4 µM

Asked: Please report the recorded TGI for COc1ccc(/C=C2\N=C3SC=C(N)N3C2=O)cc1 .
Given back: 4.23 µM

Asked: Please report the recorded TGI for CCOC(=O)C(C[Si](C)(C)C)P(=O)(OCC)OCC (centres undefined) .
Given back: > 100 µM

Asked: Please report the recorded TGI for COc1ccc2c(c1)OC13Oc4cc(OC)ccc4C=C1CCCC3=C2 .
Given back: > 100 µM

Asked: Please report the recorded TGI for CC(C)(C)OC(=O)NC(Cc1ccc([N+](=O)[O-])cc1)C(=O)NC(CCCCNC(=O)OCc1ccccc1)C(=O)ON1C(=O)CCC1=O (centres undefined) .
Given back: > 100 µM

Asked: Please report the recorded TGI for COC(=O)C1=C(O)C(C(=O)OC)[C@]2(O)[C@H](C(=O)OC)[C@H]1C[C@@H](c1ccc(OC)cc1)[C@H]2C(=O)OC (some centres undefined) .
Given back: > 100 µM

Asked: Please report the recorded TGI for Nc1c(C(=O)c2ccccc2)[nH]c(NCc2ccccc2)c1C(=S)Nc1ccccc1 .
Given back: > 100 µM

---

System: RPMI-8226 leukemia
Assay: NCI tumour cell line growth inhibition, 48 h
Readout: TGI

Asked: Please report the recorded TGI for CC1(C)CC(=O)c2c(nc3ccc4ccccc4c3c2-c2ccc(NC(=O)CCCCC(=O)Nc3ccc(-c4c5c(nc6ccc7ccccc7c46)CC(C)(C)CC5=O)cc3)cc2)C1 .
Given back: > 100 µM

Asked: Please report the recorded TGI for C#Cc1ccc(NC(=O)c2ccc(/C=C/C(=O)c3nccn3C)cc2)cc1 .
Given back: 0.672 µM

Asked: Please report the recorded TGI for O=C(O)CCC1(c2ccccc2)NC(=O)NC1=O (stereo not drawn) .
Given back: > 100 µM

Asked: Please report the recorded TGI for O=C1OC(CN2CCN(c3ccccc3)CC2)CN1C(=S)Nc1ccccc1 (stereo not drawn) .
Given back: > 100 µM

Asked: Please report the recorded TGI for CN(O)C(=O)Cc1ccccc1 .
Given back: > 100 µM

Asked: Please report the recorded TGI for Cc1cc(C)c(C(=O)OC(c2ccccc2)C(c2ccccc2)N2CCOCC2)c(C)c1 (stereo not drawn) .
Given back: 85.3 µM

Asked: Please report the recorded TGI for COc1ccc(/C=C(\C#N)c2cc3ccccc3n2C)cc1 .
Given back: > 100 µM

Asked: Please report the recorded TGI for CN1OC(=O)N(C)C1c1ccccc1 (stereo not drawn) .
Given back: > 100 µM

Asked: Please report the recorded TGI for CCC1(C)N=C(C(N)=O)c2ncn(N=C(C)C)c2N1 (stereo not drawn) .
Given back: > 100 µM

Asked: Please report the recorded TGI for O=c1[nH]c(=S)[nH]c(O)c1/C=C1\C=CC=N1 .
Given back: 23 µM

Asked: Please report the recorded TGI for C=C(C)[C@H]1CC/C(C)=C/CCC(C)C(=O)CC/C(CO)=C\[C@@H]1O (stereo partly drawn) .
Given back: > 100 µM

Asked: Please report the recorded TGI for FC(F)(F)c1ccc(-c2cnc(Br)nc2NC2CCCCCC2)cc1 .
Given back: > 100 µM

Asked: Please report the recorded TGI for C#CCOC(=O)c1ccccc1OC(C)=O .
Given back: > 100 µM

---

Tested on: OVCAR-3 ovarian
Experiment: NCI tumour cell line growth inhibition, 48 h; in the data active = GI50 below about 0.43 µM; inactive = the rest
// one of active, inactive, no free text

Asked: Tell me the assay call for NC(CSC(c1ccccc1)(c1ccccc1)c1ccc2ccccc2c1)C(=O)O (stereo not drawn) please.
Given back: active

Asked: Tell me the assay call for O=C(/C=C/c1cccc(Cl)c1)c1ccc(Cl)cc1Cl please.
Given back: inactive

Asked: Tell me the assay call for COc1ccc(/C=C(\C#N)c2cc3ccccc3n2C)cc1 please.
Given back: active

---

Would you kindly list TGI for each of these compounds?
Test system: NCI-H226 lung
Assay: NCI tumour cell line growth inhibition, 48 h
Return type: number; implicit unit µM.

Asked: Please report the recorded TGI for CC(=O)Nc1ccc(-c2nnc(SCC(=O)Nc3ccc(C)cc3)o2)cc1 .
Given back: 52.4

Asked: Please report the recorded TGI for CC(C)[Si](OC1=CCCCCC12C(=O)N(C)c1ccccc12)(C(C)C)C(C)C (stereo not drawn) .
Given back: 39

Asked: Please report the recorded TGI for COc1ccc2c3c(c(OCCCN(C)C)nc2c1)-c1ccc(Cl)cc1C3=O .
Given back: 21.7

Asked: Please report the recorded TGI for CCC1(OC(C)=O)C(=O)OCc2c1cc1n(c2=O)Cc2cc3ccccc3nc2-1 (stereo not drawn) .
Given back: 4.55

Asked: Please report the recorded TGI for C=C1C(C)C2C(Cc3ccccc3)NC(=O)C23C(OC(C)=O)/C=C/C(C)(O)CC(C)C/C=C/C3C1O (stereo not drawn) .
Given back: 42.3

Asked: Please report the recorded TGI for COc1cc(C2C(C#N)=C(N)OC3=C2C(=O)c2ccccc2C3=O)cc(OC)c1OC (stereo not drawn) .
Given back: 23.7

Asked: Please report the recorded TGI for O/N=C\c1cc(O)c(O)c(/C=N/O)c1 .
Given back: 78.6

---

System: OVCAR-5 ovarian
Test: NCI tumour cell line growth inhibition, 48 h
Readout: TGI

Asked: Please report the recorded TGI for Oc1ccc2ccccc2c1N=Nc1ccccc1 .
Given back: > 100 µM

Asked: Please report the recorded TGI for CC(=O)/C(C)=N/N/C(N)=N\S(=O)(=O)c1cc(C(=O)Nc2ccccc2)c(Cl)cc1SCc1ccccc1 .
Given back: > 100 µM

Asked: Please report the recorded TGI for CCOC(=O)C(C[Si](C)(C)C)P(=O)(OCC)OCC (stereo unspecified) .
Given back: > 100 µM

Asked: Please report the recorded TGI for N#Cc1c(C#N)c(SSc2c(C#N)c(C#N)c(N)n2-c2ccccc2)n(-c2ccccc2)c1N .
Given back: > 62.5 µM

Asked: Please report the recorded TGI for COc1cccc(C2C(C(=O)Nc3cc(=O)n(C)c(=O)n3C)=C(C)NC(C)=C2C(=O)Nc2cc(=O)n(C)c(=O)n2C)c1O .
Given back: > 100 µM

Asked: Please report the recorded TGI for CN1OC(=O)N(C)C1c1ccccc1 (stereo unspecified) .
Given back: > 100 µM
